- target of assay: 5-HT2 receptors (isolated rabbit aorta) (Oryctolagus cuniculus, UniProt G1SYA7)
- Construct: Four rings formed from rabbit aorta were joined together to form a chain; from tissue; host or cells: isolated rabbit aorta rings
- Sequence (G1SYA7 1-469): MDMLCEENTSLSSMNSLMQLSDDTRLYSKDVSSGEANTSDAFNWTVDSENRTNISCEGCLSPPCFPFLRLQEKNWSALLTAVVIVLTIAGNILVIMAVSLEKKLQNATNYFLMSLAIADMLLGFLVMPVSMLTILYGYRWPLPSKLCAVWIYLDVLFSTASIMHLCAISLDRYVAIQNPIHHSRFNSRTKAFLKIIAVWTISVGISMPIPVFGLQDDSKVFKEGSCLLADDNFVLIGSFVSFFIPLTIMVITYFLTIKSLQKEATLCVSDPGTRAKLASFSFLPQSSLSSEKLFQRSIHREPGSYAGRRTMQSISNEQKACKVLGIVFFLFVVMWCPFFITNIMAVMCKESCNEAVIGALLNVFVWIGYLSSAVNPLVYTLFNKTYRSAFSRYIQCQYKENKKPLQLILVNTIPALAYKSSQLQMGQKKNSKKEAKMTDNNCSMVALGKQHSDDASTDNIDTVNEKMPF
- protocol summary: Antagonism of serotonin-induced contraction of isolated rabbit aorta
- measurement setup: rabbit aorta, 0.3 μM serotonin; conversion of 3.1 μg/ml; read-out: IC50, 5-HT2 antagonist activity
endpoint: IC50 (µM)
Numeric only. Scale: µM

What value of measured IC50 is listed for "COc1cc2nc(N3CCC(c4ccc(C)o4)CC3)nc(N)c2cc1OC" ?
7.6

###

- protocol summary: in vivo
- measurement setup: plasma, po; rat, OS 15 mg/kg, 0.25 h
Counter-ions that a name gives are not always drawn.
endpoint: concentration at 0.25 h (ng/mL)
Give just the numeric value; ng/mL need not be written.

Given the entry COc1cc2nc(N3CCC(c4ccccn4)CC3)nc(N)c2cc1OC [Compound 7, (hydrochloride)] , report its measured concentration at 0.25 h.
230

###

- protocol summary: in vivo
- measurement setup: plasma; rat, IV 1 mg/kg, 1 h
Where a name gives a salt, the structure may show the parent alone.
endpoint: concentration at 1 h (ng/mL)
// return numeric value only (unit: ng/mL, not printed)

Which concentration at 1 h is reported for this compound? COc1cc2nc(N3CCC(c4ccccn4)CC3)nc(N)c2cc1OC [Compound 7, (hydrochloride)]
100

###

- protocol summary: in vivo
- measurement setup: plasma; rat, IV 1 mg/kg, 0.083 h
Structures can show the parent of a compound that is named as a salt.
endpoint: concentration at 0.083 h (ng/mL)
A number alone suffices; assume ng/mL.

So what's the measured concentration at 0.083 h for this one? COc1cc2nc(N3CCC(c4ccccn4)CC3)nc(N)c2cc1OC [Compound 7, (hydrochloride)]
420

###

- protocol summary: in vivo
- measurement setup: plasma, po; rat, OS 15 mg/kg, 2 h
Counter-ions that a name gives are not always drawn.
endpoint: concentration at 2 h (ng/mL)
Express your answer in ng/mL, writing the number without its unit.

Suppose we examine the compound COc1cc2nc(N3CCC(c4ccccn4)CC3)nc(N)c2cc1OC [Compound 7, (hydrochloride)] ; what concentration at 2 h value has been reported?
390

###

- target of assay: 5-HT2 receptors (isolated rabbit aorta) (Oryctolagus cuniculus)
- Construct: Four rings formed from rabbit aorta were joined together to form a chain; from tissue; host or cells: isolated rabbit aorta rings
- protocol summary: Antagonism of serotonin-induced contraction of isolated rabbit aorta
- measurement setup: isolated rabbit aorta, 37° C., compound 10 min before agonist; limits (p < 0.05)
Counter-ions that a name gives are not always drawn.
Doc: threshold 40 µM (exclusive). Items with IC50 beneath it return MET; others return NOT MET.

The examples below pair each entry with its known result.
[[record]]
compound = "COc1cc2nc(N3CCC(c4ccccc4)CC3)nc(N)c2cc1OC"
assigned_label = "MET"

[[record]]
compound = "COc1cccc(OC)c1OCCNCC1COc2ccccc2O1 (stereo not drawn) [WB-4101, reference compound]"
assigned_label = "NOT MET"

[[record]]
compound = "COc1cc2nc(N3CCC(c4ccccc4OC)CC3)nc(N)c2cc1OC"
assigned_label = "MET"

[[record]]
compound = "COc1cc2nc(N3CCC(c4ccc(C)o4)CC3)nc(N)c2cc1OC"
assigned_label = "MET"

[[record]]
compound = "COc1cc2nc(N3CCN(C(=O)c4ccco4)CC3)nc(N)c2cc1OC [Prazosin, reference compound]"
assigned_label = "NOT MET"


Find out if reported IC50 for "COc1cc2nc(N3CCC(c4cccs4)CC3)nc(N)c2cc1OC" is less than 40 µM
NOT MET

Would you kindly verify if IC50 of COc1cc2nc(N3CCC(c4ccccn4)CC3)nc(N)c2cc1OC [Compound 7, (hydrochloride)] is strictly less than 40 µM?
NOT MET

Dear colleague, could you confirm whether IC50 of "COc1cc2nc(N3CCC(c4cc5ccccc5o4)CC3)nc(N)c2cc1OC" falls below 40 µM? Thanks.
MET

Given the entry O=C(c1ccc(F)cc1)C1CCN(CCn2c(=O)[nH]c3ccccc3c2=O)CC1 [Ketanserine, reference compound] , would its reported IC50 be below 40 µM?
MET
